compounds and their reported Plant response rating, Foxtail, Giant
Test system: foxtail, giant (giant foxtail, Setaria faberii)
Assay: Test C preemergence
Assay type: in vivo
Details: 125 g ai/ha, scale 0 to 100, 0 no effect, 100 complete control
Answer field: number only, no words.

Here is how some compounds turned out for Plant response rating, Foxtail, Giant.
{"compound": "O=C1NCC(c2cccc(OC(F)(F)C(F)F)c2)C1C(=O)Nc1ccccc1F (racemic)", "assaySystem": "foxtail, giant (giant foxtail, Setaria faberii)", "Plant response rating, Foxtail, Giant": 90}
{"compound": "CN1CC(c2cccc(OC(F)F)c2)C(C(=O)Nc2ccccc2F)C1=O (stereo not shown)", "assaySystem": "foxtail, giant (giant foxtail, Setaria faberii)", "Plant response rating, Foxtail, Giant": 90}
{"compound": "CN1CC(c2ccc(F)c(C(F)(F)F)c2)C(C(=O)Nc2cccc(F)c2F)C1=O (stereo not shown)", "assaySystem": "foxtail, giant (giant foxtail, Setaria faberii)", "Plant response rating, Foxtail, Giant": 95}

Consider now this further compound.
Task: Recall the reported Plant response rating, Foxtail, Giant of Cc1ccc(C2CN(C)C(=O)C2C(=O)Nc2cccc(F)c2F)cc1 (stereo not shown) when tested on foxtail, giant (giant foxtail, Setaria faberii).
Output: 95
